assay comment: protein stability index of a GFP-peptide fusion (yeast GPS) (PSI 1-4); higher = more stable; sorted into four equal gates, so the index is relative within each strain
experimental setup: san1∆
Reported values of protein stability index for individual entries
Give the figure by itself; no unit, no explanation.

Use the examples below as a reference point.
>>> recorded_number("GFQDRSLPHFPKNSKTP [RPO31]")
1.56
>>> recorded_number("IFIRQLKENEENEDGNI [BRR2]")
3.2
>>> recorded_number("ILYSFKLSGKLLKEEKI [YML103C/NUP188]")
2.11

Incoming: Fill in: protein stability index of NTNGTNASANSTSFSFN [YOR098C/NUP1] is ___
Outgoing: 2.99

Incoming: Fill in: protein stability index of PENITKREASRGFFDIL [MCD1] is ___
Outgoing: 3.13

Incoming: Fill in: protein stability index of NNPLVQKKNFLFKPLNK [ARP7] is ___
Outgoing: 2.2

Incoming: Fill in: protein stability index of DSADVPAFSNSNGFNNV [YMR153W/NUP53] is ___
Outgoing: 3.22

* * *

assay comment: protein stability index of a GFP-peptide fusion (yeast GPS) (PSI 1-4); higher = more stable; sorted into four equal gates, so the index is relative within each strain
experimental setup: san1∆
Binary call on protein stability index: met from 3 upward, not met beneath that.

Incoming: Is protein stability index for EYNKPNSEKFVFLLTTR [ISW2] at or above 3?
Outgoing: not met

Incoming: Is protein stability index for SVPTNSADAPNPNNVNV [RET1] at or above 3?
Outgoing: met

* * *

Reported values of protein stability index for individual entries
assay comment: protein stability index of a GFP-peptide fusion (yeast GPS) (PSI 1-4); higher = more stable; sorted into four equal gates, so the index is relative within each strain
experimental setup: san1∆
Give the figure by itself; no unit, no explanation.

Use the examples below as a reference point.
>>> recorded_number("LYDRPLKPDLNKITNQG [NAS6]")
3.11
>>> recorded_number("RKVSGPRALQPSQFGML [RET1]")
2.46
>>> recorded_number("ETLVLDEADKMIDLGFE [PRP28]")
3.31
>>> recorded_number("LKTVLHNGRDKIQFHIH [RGR1]")
1.41
>>> recorded_number("NIKTIAETLAEELINAA [RPS5]")
2.85
>>> recorded_number("LSLDSDVKFPSNTTTQI [SMC3]")
2.81
>>> recorded_number("VLDSYTPSTNEPYARVS [FAS1]")
2.71
>>> recorded_number("ISTYISTDELVGSPLTV [POP8]")
2.27

Incoming: Fill in: protein stability index of APTLSQTYINQELGFCE [SSN2] is ___
Outgoing: 1.95

Incoming: Fill in: protein stability index of RARVTKDLVEIKKEEGK [RPN5] is ___
Outgoing: 3.33

Incoming: Fill in: protein stability index of ENGTHNDEVNEDEEDDN [YCG1] is ___
Outgoing: 3.54

Incoming: Fill in: protein stability index of ITHQLNNKFANKIIPNV [RPC25] is ___
Outgoing: 2.93

Incoming: Fill in: protein stability index of SVFYNIANMVLPPEKIY [SIR2] is ___
Outgoing: 1.81

Incoming: Fill in: protein stability index of FVEVERARVTKDLVEIK [RPN5] is ___
Outgoing: 3.33

Incoming: Fill in: protein stability index of DIDAVNGAVGKREGKTR [ISW2] is ___
Outgoing: 2.94

* * *

assay comment: protein stability index of a GFP-peptide fusion (yeast GPS) (PSI 1-4); higher = more stable; sorted into four equal gates, so the index is relative within each strain
experimental setup: san1∆
reported property: protein stability index
Give the figure by itself; no unit, no explanation.

>>> recorded_number("QWFLQYQNQFVEFCRNI [YML103C/NUP188]")
1.89
>>> recorded_number("TKMFEDRREKAERTMSK [SMC2]")
3.22

Incoming: Fill in: protein stability index of QYYVTQHDKMVDKIFEK [SWI1] is ___
Outgoing: 2.68

Incoming: Fill in: protein stability index of PKKEYDDDAVRREVQIQ [NSL1] is ___
Outgoing: 1.36

Incoming: Fill in: protein stability index of PKKFGGKGARSRFQKSY [RPS16A] is ___
Outgoing: 3.31

Incoming: Fill in: protein stability index of VNAPLPTPFKVDDNVDF [RPN2] is ___
Outgoing: 2.74

Incoming: Fill in: protein stability index of EASKKSAVKPRPLKLER [FAS1] is ___
Outgoing: 2.88

* * *

assay comment: protein stability index of a GFP-peptide fusion (yeast GPS) (PSI 1-4); higher = more stable; sorted into four equal gates, so the index is relative within each strain
experimental setup: pdr5∆
reported property: protein stability index
Give the figure by itself; no unit, no explanation.

Use the examples below as a reference point.
>>> recorded_number("PGAKPLQVGDVVSTTAV [FAS1]")
2.42
>>> recorded_number("SFTQGELNDLKWGRNQP [YMR129W/POM152]")
2.84
>>> recorded_number("FPQGLNIVMDSKQNGIE [SSN8]")
3.04
>>> recorded_number("VLPDADVKLLHSQFMKD [YJL039C/NUP192]")
2.21
>>> recorded_number("EEKGWVPVTKLGRLVKA [RPS2]")
3.44

Incoming: Fill in: protein stability index of PKLESVKWQYDPNNPVD [SNF12] is ___
Outgoing: 2.81

Incoming: Fill in: protein stability index of LLQKMLNLLNYQELFIQ [YML103C/NUP188] is ___
Outgoing: 1.47

Incoming: Fill in: protein stability index of NDQALIKVLLRQNRRPE [RET1] is ___
Outgoing: 2.45

Incoming: Fill in: protein stability index of VADEEANIELTWAEGTF [RPC37] is ___
Outgoing: 2.98

Incoming: Fill in: protein stability index of QALEKIGIVEISPKGGR [RPS19A] is ___
Outgoing: 2.74

* * *

assay comment: protein stability index of a GFP-peptide fusion (yeast GPS) (PSI 1-4); higher = more stable; sorted into four equal gates, so the index is relative within each strain
experimental setup: ubr1∆
Binary call on protein stability index: yes (1) from 3 upward, no (0) beneath that.

Reference set (5 entries):
>>> assigned_label("EKAKEMIRLLGSESDDS [ECM29]")
"no (0)"
>>> assigned_label("VSNPIRKVFKPSQGMVV [FAS1]")
"no (0)"
>>> assigned_label("IGMSLLMRTFLYTLAQE [SIR3]")
"no (0)"
>>> assigned_label("RRFKNGFQTGSASKASA [RPL37A]")
"no (0)"
>>> assigned_label("RLGGDDLRIRIKLDIVV [SNF5]")
"no (0)"

Incoming: Is protein stability index for PIFNYIFTEKIYKSIFN [YJL039C/NUP192] at or above 3?
Outgoing: no (0)

Incoming: Is protein stability index for LERTAIELKTDWVRFLA [RPN1] at or above 3?
Outgoing: no (0)

Incoming: Is protein stability index for DPTKVTEFEFYLLEELE [SSN8] at or above 3?
Outgoing: yes (1)

Incoming: Is protein stability index for HWMGSSVSGSPRPSYSS [YMR129W/POM152] at or above 3?
Outgoing: no (0)

Incoming: Is protein stability index for LYEKDIVPSMTHLEIEP [RET1] at or above 3?
Outgoing: no (0)

* * *

Reported values of protein stability index for individual entries
assay comment: protein stability index of a GFP-peptide fusion (yeast GPS) (PSI 1-4); higher = more stable; sorted into four equal gates, so the index is relative within each strain
experimental setup: san1∆
Give the figure by itself; no unit, no explanation.

Use the examples below as a reference point.
>>> recorded_number("LKLSMADYNGALLRVTK [POP4]")
2.61
>>> recorded_number("GCNNLIKNISNRVGLTL [ARP9]")
3.33
>>> recorded_number("LAEEKIRAAGGVVELIA [RPL28]")
2.94
>>> recorded_number("VKSKIQDKEGIPPDQQR [RPS31]")
3.41
>>> recorded_number("DMIKCFLPKLNSVRNSL [NUT1]")
2.47
>>> recorded_number("APAVELHGNAKKAAEEA [FAS2]")
3.1
>>> recorded_number("IAATAVASLVLARGHRV [RPL4A]")
2.08
>>> recorded_number("DSENFSFEKLYEGMKLG [YMR129W/POM152]")
3.42

Now for another entry.
Incoming: Fill in: protein stability index of GTPLLEVRGQVPVIESA [SNU114] is ___
Outgoing: 2.06

* * *

Reported values of protein stability index for individual entries
assay comment: protein stability index of a GFP-peptide fusion (yeast GPS) (PSI 1-4); higher = more stable; sorted into four equal gates, so the index is relative within each strain
experimental setup: doa10∆
Give the figure by itself; no unit, no explanation.

Use the examples below as a reference point.
>>> recorded_number("NEIEGKNEETPQNEKPP [RPC25]")
2.76
>>> recorded_number("EYSYVDSNMDSISSVVS [RPN4]")
2.84

Now for another entry.
Incoming: Fill in: protein stability index of STLHMLGYTHIAINFTV [RPP1] is ___
Outgoing: 1.5
